# Experimental system: T1, M14
# T1 construct: also called PD1 mutant M14
# Assay explanation: scFv-phage ELISA
Lab note: anything with OD490 below 3 is marked label 1; values at 3 or higher are marked label 0.

Binder	Cat
PD1-48A9 (antibody, V domains shown, scFv-phage in the screening ELISA; whole IgG in the other assays) VH: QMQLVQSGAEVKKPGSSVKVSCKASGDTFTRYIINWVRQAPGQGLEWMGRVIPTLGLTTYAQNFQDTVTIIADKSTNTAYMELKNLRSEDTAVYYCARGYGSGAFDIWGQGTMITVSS VL: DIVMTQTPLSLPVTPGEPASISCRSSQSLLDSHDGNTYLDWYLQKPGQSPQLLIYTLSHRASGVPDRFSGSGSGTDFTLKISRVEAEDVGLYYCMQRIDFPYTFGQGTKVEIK	label 0
PD1-52E8 (antibody, V domains shown, scFv-phage in the screening ELISA; whole IgG in the other assays) VH: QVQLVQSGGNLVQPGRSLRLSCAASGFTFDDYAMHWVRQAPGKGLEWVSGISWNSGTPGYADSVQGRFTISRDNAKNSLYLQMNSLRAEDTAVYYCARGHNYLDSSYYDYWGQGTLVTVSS VL: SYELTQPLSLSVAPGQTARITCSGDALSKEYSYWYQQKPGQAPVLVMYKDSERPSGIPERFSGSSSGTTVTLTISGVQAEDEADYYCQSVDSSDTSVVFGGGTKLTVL	label 1
PD1-32A6 (antibody, V domains shown, scFv-phage in the screening ELISA; later whole IgG) VH: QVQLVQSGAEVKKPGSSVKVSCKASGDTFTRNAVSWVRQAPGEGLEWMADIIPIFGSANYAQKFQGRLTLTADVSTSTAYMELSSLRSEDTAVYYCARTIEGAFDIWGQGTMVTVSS VL: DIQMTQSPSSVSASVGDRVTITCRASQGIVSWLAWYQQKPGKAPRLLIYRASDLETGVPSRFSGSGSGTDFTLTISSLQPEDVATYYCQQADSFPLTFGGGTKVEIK	label 1
PD1-49A2 (antibody, V domains shown, scFv-phage in the screening ELISA; whole IgG in the other assays; also called Parent 49A2) VH: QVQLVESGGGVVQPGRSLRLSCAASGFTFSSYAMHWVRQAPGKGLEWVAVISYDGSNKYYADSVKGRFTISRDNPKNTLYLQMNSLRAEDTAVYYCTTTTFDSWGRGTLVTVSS VL: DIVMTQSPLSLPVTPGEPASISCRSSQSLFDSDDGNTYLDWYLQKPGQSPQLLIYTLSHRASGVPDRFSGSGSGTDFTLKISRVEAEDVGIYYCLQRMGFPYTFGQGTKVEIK	label 0
PD1-45F4 (antibody, V domains shown, scFv-phage in the screening ELISA; later whole IgG) VH: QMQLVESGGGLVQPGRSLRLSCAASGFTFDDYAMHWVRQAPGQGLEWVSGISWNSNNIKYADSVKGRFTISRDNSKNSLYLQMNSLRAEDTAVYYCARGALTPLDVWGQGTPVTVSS VL: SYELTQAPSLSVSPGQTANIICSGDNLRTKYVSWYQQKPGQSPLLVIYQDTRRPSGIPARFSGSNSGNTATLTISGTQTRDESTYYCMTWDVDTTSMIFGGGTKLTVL	label 1
PD1-29H3 (antibody, V domains shown, scFv-phage in the screening ELISA; later whole IgG) VH: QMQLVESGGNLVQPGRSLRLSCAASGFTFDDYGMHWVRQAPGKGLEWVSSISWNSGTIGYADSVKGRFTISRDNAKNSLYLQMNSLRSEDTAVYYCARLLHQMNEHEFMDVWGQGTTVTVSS VL: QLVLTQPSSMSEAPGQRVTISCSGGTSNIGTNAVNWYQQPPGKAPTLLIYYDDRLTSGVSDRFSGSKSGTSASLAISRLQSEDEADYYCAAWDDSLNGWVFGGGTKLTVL	label 0
PD1-31F3 (antibody, V domains shown, scFv-phage in the screening ELISA; later whole IgG) VH: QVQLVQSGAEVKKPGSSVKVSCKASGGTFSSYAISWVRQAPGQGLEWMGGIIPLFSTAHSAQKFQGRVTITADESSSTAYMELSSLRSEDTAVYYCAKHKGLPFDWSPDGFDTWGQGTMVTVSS VL: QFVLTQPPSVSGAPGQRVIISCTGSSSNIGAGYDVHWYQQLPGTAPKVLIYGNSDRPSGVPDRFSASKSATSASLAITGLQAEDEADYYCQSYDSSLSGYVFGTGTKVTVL	label 0
PD1-45F1 (antibody, V domains shown, scFv-phage in the screening ELISA; later whole IgG) VH: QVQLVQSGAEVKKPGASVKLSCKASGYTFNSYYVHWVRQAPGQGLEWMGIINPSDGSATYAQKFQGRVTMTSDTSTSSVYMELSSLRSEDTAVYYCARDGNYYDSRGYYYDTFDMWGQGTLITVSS VL: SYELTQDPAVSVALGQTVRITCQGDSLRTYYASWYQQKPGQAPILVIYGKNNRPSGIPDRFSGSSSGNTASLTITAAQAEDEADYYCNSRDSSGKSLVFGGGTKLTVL	label 0
PD1-45D6 (antibody, V domains shown, scFv-phage in the screening ELISA; whole IgG in the other assays) VH: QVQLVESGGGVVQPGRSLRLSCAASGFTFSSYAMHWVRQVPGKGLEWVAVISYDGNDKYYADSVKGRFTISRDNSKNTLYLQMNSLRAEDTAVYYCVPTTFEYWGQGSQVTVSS VL: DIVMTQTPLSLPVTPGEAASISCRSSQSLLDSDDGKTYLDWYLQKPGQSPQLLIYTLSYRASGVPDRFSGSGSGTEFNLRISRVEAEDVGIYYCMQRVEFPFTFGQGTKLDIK	label 0
PD1-42G4 (antibody, V domains shown, scFv-phage in the screening ELISA; later whole IgG) VH: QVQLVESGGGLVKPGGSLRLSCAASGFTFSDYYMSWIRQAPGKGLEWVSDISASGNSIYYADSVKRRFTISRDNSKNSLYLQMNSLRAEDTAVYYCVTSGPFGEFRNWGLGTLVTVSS VL: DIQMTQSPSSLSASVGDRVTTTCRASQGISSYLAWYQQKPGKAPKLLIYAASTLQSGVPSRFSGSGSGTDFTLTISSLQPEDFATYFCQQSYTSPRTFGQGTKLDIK	label 0
